system: Huh7 cells; test: MTT cell viability assay, Huh7; type: cell-based, human; conditions: Homo sapiens, Huh-7, 72 h, read-out: IC50 (μM) Huh7
The following molecules are listed with their measured IC50 values.
A number alone suffices; assume µM.

C[C@H]1[C@H](OC(=O)CCC(=O)O)O[C@@H]2O[C@@]3(C)CC[C@H]4[C@H](C)CC[C@@H]1[C@@]24OO3 [AS, Artesunate] : 47.5

*Q* Observed IC50 on Huh7 cells for CNC(=O)c1cc(Oc2ccc(NC(=O)Nc3ccc(Cl)c(C(F)(F)F)c3)cc2)ccn1 [Sorafenib] , please.
*A* 3.09

====

system: Hep3B cells; test: MTT cell viability assay, Hep3B; type: cell-based, human; settings: Homo sapiens, Hep3B, 72 h, read-out: IC50 (μM) Hep3B
Measured parameter: IC50 (µM)
A number alone suffices; assume µM.

*Q* What value of IC50 has been recorded for this entry: C[C@H]1[C@H](OC(=O)CCC(=O)O)O[C@@H]2O[C@@]3(C)CC[C@H]4[C@H](C)CC[C@@H]1[C@@]24OO3 [AS, Artesunate]
*A* 44.2
